These entries and their values trace back to paper PMC12044245.

# test-target: NA (neuraminidase) of A/Yamagata/135/2023 (Influenza A virus, UniProt C3W5S3)
pIC50: −log10 of the molar value.
parameter: pIC50

                               given_smiles  result_value
0  CCC(CC)[C@H](NC(C)=O)[C@@H]1[C@H](O)[C@@H](C(=O)O)C[C@H]1N=C(N)N         10.10

---

# test-target: NA (neuraminidase) of A/Yamagata/177/2023 (Influenza A virus, UniProt C3W5S3)
parameter: IC50 (nM)

In [3]: df
Out[3]:
                                   compound                               test_target  parameter  result_value
0  CCC(CC)[C@H](NC(C)=O)[C@@H]1[C@H](O)[C@@H](C(=O)O)C[C@H]1N=C(N)N [Peramivir, peramivir]  NA (neuraminidase) of A/Yamagata/177/2023 (Influenza A virus, UniProt C3W5S3)       IC50          0.06
